Give measured DC50 for each item. Keep answers brief.
Molecular target: ER (Homo sapiens (Human), UniProt P03372)
Sequence (P03372 whole entry): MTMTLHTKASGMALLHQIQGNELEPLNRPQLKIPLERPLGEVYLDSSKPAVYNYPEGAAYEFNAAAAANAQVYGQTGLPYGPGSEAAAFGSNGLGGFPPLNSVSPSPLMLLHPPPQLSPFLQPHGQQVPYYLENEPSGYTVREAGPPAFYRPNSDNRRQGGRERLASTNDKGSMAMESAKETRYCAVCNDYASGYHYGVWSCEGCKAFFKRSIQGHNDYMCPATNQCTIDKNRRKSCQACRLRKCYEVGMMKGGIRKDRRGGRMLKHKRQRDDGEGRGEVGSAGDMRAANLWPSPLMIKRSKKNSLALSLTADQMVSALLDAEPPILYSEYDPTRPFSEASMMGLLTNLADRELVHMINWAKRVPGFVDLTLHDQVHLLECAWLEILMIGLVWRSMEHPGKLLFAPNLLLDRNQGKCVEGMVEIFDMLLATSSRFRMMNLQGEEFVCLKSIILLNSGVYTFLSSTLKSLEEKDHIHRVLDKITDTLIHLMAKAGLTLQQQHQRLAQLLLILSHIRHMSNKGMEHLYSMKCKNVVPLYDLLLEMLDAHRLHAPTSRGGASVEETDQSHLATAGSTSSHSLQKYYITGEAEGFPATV
Assay: In-cell western blot analysis of ER for "B" compounds
Format: cell-based
Conditions: 16 hours, read-out: ICW DC50

Incoming: State its DC50: O=C1CC[C@H](N2Cc3cc4c(cc3C2=O)OC[C@@H]2CN(CC3CCC5(CN(c6ccc([C@@H]7c8ccc(O)cc8CC[C@@H]7c7ccccc7)cc6)C5)OC3)CCN42)C(=O)N1 (some centres unmarked)
Outgoing: 10 to 100 nM

Incoming: Could you please provide reported DC50 for CN(C(=O)c1ccc2c(n1)OC[C@H]1CN(CC3COC4(CCN(c5ccc([C@@H]6c7ccc(O)cc7CC[C@@H]6c6ccccc6)cc5)CC4)C3)CCN21)C1CCC(=O)NC1=O (some centres unmarked) ? Thanks!
Outgoing: > 100 nM

Incoming: Input O=C1CCC(N2Cc3c(ccc4c3OCC43CCN(CC(=O)N4CCC5(CC4)CN(c4ccc([C@@H]6c7ccc(O)cc7CC[C@@H]6c6ccccc6)cc4)C5)CC3)C2=O)C(=O)N1 (some centres unmarked) , output reported DC50.
Outgoing: < 10 nM

Incoming: Tell me its DC50 given O=C1CCC(N2Cc3c(ccc4c3OCC43CCN(CC(=O)N4CC5(CC(Nc6ccc([C@@H]7c8ccc(O)cc8CC[C@@H]7c7ccccc7)cc6)C5)C4)CC3)C2=O)C(=O)N1 (some centres unmarked) as the entry.
Outgoing: < 10 nM

Incoming: For O=C1CCC(N2Cc3c(ccc4c3OCC43CCN(CC4COC5(CCN(c6ccc([C@@H]7c8ccc(O)cc8CC[C@@H]7c7ccccc7)cc6)CC5)C4)CC3)C2=O)C(=O)N1 (some centres unmarked) , write its DC50.
Outgoing: 10 to 100 nM

----------
Target: ER in MCF-7 cells (Homo sapiens (Human), UniProt P03372)
Sequence (P03372 whole entry): as above
Assay: In-cell Western (ICW) ER degradation assay in MCF-7 cells
Type: cell-based
Details: MCF7, MCF-7, maximal ER degradation, 16 hrs treatment; read-out: MCF7 Dmax
Readout kind: Dmax

Incoming: Output measured Dmax for this item: COc1cc(N2CCC3(CC2)CC(CN2CCN4c5ccc(C(=O)N[C@H]6CCC(=O)NC6=O)nc5OC[C@H]4C2)C3)c(F)cc1[C@@H]1c2ccc(O)cc2CC[C@@H]1c1ccccc1 [Compound A111]
Outgoing: 50 to 75%

Incoming: Report Dmax for O=C1CC[C@H](NC(=O)c2ccc3c(n2)OC[C@H]2CN(C[C@@H]4COC5(CCN(c6ccc([C@@H]7c8ccc(O)cc8CC[C@@H]7c7ccccc7)cc6)CC5)C4)CCN32)C(=O)N1 (single isomer, unassigned) [Compound A14]
Outgoing: 50 to 75%

Incoming: Give me measured Dmax, please, for this compound: O=C1CC[C@H](N2Cc3c(ccc4c3OC[C@H]3CN(C[C@H]5COC6(C5)CN(c5ccc([C@@H]7c8ccc(O)cc8CC[C@@H]7c7ccccc7)cc5)C6)CCN43)C2=O)C(=O)N1 (single isomer, unassigned) [Compound A68]
Outgoing: 50 to 75%

Incoming: Please indicate Dmax recorded for COC1(CCN2CCN3c4ccc5c(c4OC[C@H]3C2)CN([C@H]2CCC(=O)NC2=O)C5=O)CCN(c2ccc([C@@H]3c4ccc(O)cc4CC[C@@H]3c3ccccc3)cc2)CC1 [Compound A192]
Outgoing: > 75%

Incoming: Look up and report measured Dmax for this entry: O=C1CC[C@H](N2Cc3c(ccc4c3OC[C@H]3CN(CC5CC6(CCN(c7ccc([C@H]8c9ccc(O)cc9CC[C@H]8c8ccccc8)cn7)CC6)C5)CCN43)C2=O)C(=O)N1 (single isomer, unassigned) [Compound A113]
Outgoing: 25 to 50%

----------
Molecular target: ER in T47D cells (Homo sapiens (Human), UniProt P03372)
Sequence (P03372 whole entry): as above
Experiment: In-cell Western (ICW) ER degradation assay in T47D cells
Type: cell-based
Details: ER degradation, 16 hrs treatment
For each record, write down the corresponding DC50.

Incoming: Specify DC50 for COc1cc(N2CCC3(CC2)CC(CN2CCC(c4ccc(N[C@H]5CCC(=O)NC5=O)cc4)CC2)C3)ccc1[C@@H]1c2ccc(O)cc2CC[C@@H]1c1ccccc1 (single isomer, unassigned) [Compound A96] and stop.
Outgoing: < 1 nM

Incoming: Identify DC50 associated with the compound O=C1CC[C@@H](Nc2ccc(C3CCN(C[C@H]4COC5(CCN(c6ccc([C@@H]7c8ccc(O)cc8CC[C@@H]7c7ccccc7)cc6)CC5)C4)CC3)cc2)C(=O)N1 (single isomer, unassigned) [Compound A51]
Outgoing: > 100 nM

Incoming: Note down DC50 recorded for COc1cc(N2CCC(CN3CCC4(CC3)COc3cc5c(cc34)CN([C@H]3CCC(=O)NC3=O)C5=O)CC2)ccc1[C@@H]1c2ccc(O)cc2CC[C@@H]1c1ccccc1 [Compound A33]
Outgoing: < 1 nM

Incoming: Note down DC50 recorded for O=C1CC[C@H](N2Cc3cc4c(cc3C2=O)OC[C@@H]2CN(C[C@H]3COC5(C3)CN(c3ccc([C@@H]6c7ccc(O)cc7CC[C@@H]6c6ccccc6)cc3)C5)CCN42)C(=O)N1 [Compound A72]
Outgoing: < 1 nM

Incoming: Fill in DC50 for record COc1cc(N2CCC3(CC2)CC(CN2CCN4c5ccc(C(=O)N[C@H]6CCC(=O)NC6=O)nc5OC[C@H]4C2)C3)c(F)cc1[C@@H]1c2ccc(O)cc2CC[C@@H]1c1ccccc1 [Compound A111]
Outgoing: 1 to 10 nM

Incoming: Look up and report measured DC50 for this entry: O=C1CC[C@H](N2Cc3cc4c(cc3C2=O)OCC42CCN(C[C@H]3COC4(CCN(c5ccc([C@H]6c7ccc(O)cc7CC[C@H]6c6ccccc6)cc5)CC4)C3)CC2)C(=O)N1 [Compound A22]
Outgoing: < 1 nM

Incoming: Supply measured DC50 of O=C1CC[C@H](N2Cc3cc4c(cc3C2=O)OC[C@H]2CN(C[C@@H]3COC5(CCN(c6ccc([C@H]7c8ccc(O)cc8CC[C@H]7c7ccccc7)cc6)CC5)C3)CCN42)C(=O)N1 [Compound A20] in your reply.
Outgoing: < 1 nM

Incoming: # return recorded DC50 for entry O=C1CC[C@H](NC(=O)c2ccc3c(n2)OC[C@H]2CN(C[C@H]4COC5(CCN(c6ccc([C@@H]7c8ccc(O)cc8CC[C@@H]7c7ccccc7)cc6)CC5)C4)CCN32)C(=O)N1 (single isomer, unassigned) [Compound A13]
Outgoing: 1 to 10 nM

Incoming: Indicate its recorded DC50; the compound in question is O=C1CC[C@H](Nc2ccc(C3CCN(C[C@@H]4COC5(CCN(c6ccc([C@@H]7c8ccc(O)cc8CC[C@@H]7c7ccccc7)cc6)CC5)C4)CC3)c(F)c2)C(=O)N1 (single isomer, unassigned) [Compound A61]
Outgoing: > 100 nM

----------
Molecular target: CRBN/DDB1 (Homo sapiens (Human), UniProt Q96SW2)
Sequence (Q96SW2 whole entry, species assumed): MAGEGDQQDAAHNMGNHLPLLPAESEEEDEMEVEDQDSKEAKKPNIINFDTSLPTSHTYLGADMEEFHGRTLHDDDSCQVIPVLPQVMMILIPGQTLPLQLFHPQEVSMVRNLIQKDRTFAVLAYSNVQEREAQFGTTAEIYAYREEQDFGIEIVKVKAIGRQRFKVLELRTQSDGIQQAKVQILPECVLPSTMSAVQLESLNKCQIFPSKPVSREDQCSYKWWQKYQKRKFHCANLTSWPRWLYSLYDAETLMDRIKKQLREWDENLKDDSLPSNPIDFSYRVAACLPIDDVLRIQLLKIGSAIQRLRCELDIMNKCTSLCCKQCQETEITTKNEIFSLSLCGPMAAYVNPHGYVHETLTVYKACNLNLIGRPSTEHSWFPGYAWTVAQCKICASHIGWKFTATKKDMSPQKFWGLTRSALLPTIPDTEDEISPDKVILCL
Sequence (Q16531 whole entry partner, species assumed): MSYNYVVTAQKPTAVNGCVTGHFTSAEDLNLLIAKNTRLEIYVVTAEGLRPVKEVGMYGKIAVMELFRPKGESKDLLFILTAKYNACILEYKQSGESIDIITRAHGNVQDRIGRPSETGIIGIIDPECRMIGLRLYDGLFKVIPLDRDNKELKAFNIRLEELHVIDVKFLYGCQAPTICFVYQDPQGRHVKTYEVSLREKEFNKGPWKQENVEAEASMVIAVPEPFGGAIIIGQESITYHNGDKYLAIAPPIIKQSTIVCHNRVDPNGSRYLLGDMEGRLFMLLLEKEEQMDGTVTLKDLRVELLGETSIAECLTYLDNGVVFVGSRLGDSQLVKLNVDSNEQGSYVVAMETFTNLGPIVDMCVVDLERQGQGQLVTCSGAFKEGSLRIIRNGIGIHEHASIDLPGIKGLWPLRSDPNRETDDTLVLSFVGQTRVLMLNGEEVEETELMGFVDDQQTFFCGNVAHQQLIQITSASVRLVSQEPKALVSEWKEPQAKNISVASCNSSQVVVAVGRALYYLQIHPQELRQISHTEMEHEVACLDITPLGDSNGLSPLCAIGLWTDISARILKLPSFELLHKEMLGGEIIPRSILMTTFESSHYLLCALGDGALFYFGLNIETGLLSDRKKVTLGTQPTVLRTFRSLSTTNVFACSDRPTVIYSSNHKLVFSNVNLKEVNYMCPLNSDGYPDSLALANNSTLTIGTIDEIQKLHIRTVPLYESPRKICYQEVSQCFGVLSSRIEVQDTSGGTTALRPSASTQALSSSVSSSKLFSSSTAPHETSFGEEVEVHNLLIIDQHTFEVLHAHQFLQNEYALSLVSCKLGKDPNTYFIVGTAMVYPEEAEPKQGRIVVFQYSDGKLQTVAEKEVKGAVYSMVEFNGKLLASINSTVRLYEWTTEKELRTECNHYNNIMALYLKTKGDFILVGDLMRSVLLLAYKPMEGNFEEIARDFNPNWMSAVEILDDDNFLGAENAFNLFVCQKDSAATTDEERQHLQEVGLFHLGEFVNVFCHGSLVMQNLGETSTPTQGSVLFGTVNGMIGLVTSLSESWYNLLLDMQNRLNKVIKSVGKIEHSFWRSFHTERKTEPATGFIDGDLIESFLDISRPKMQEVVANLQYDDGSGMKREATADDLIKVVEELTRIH
Conditions: His tagged CRBN+DDB1, Cy5-labeled Thalidomide probe, one hour; read-out: CRBN HTRF IC50
pIC50: −log10 of the molar value.
Readout kind: pIC50

Incoming: State its pIC50: COc1cc(N2CCC3(CC2)CC(CN2CCN4c5ccc(C(=O)N[C@H]6CCC(=O)NC6=O)nc5OC[C@@H]4C2)C3)c(F)cc1[C@@H]1c2ccc(O)cc2CC[C@@H]1c1ccccc1
Outgoing: < 5.30

Incoming: Return reported pIC50. Input compound: COc1cc(N2CCC(CN3CCN4c5ccc(C(=O)N[C@H]6CCC(=O)NC6=O)nc5OC[C@H]4C3)CC2)c(F)cc1[C@@H]1c2ccc(O)cc2CC[C@@H]1c1ccccc1
Outgoing: < 5.30

Incoming: Input O=C1CC[C@H](N2Cc3cc4c(cc3C2=O)OC[C@@H]2CN(C[C@@H]3COC5(C3)CN(c3ccc([C@@H]6c7ccc(O)cc7CC[C@@H]6c6ccccc6)cc3)C5)CCN42)C(=O)N1 , output reported pIC50.
Outgoing: 5.30 to 6.30

----------
Biological target: ER in T47D cells (Homo sapiens (Human), UniProt P03372)
Assay: In-cell Western (ICW) ER degradation assay in T47D cells
Format: cell-based
Conditions: ER degradation, 16 hrs treatment
Field: DC50. Provide a value for each of the compounds that follow.

Incoming: Item COc1cc(N2CCC3(CC2)C[C@H](CN2CCN4c5cc6c(cc5OC[C@@H]4C2)C(=O)N([C@H]2CCC(=O)NC2=O)C6)CO3)ccc1[C@@H]1c2ccc(O)cc2CC[C@@H]1c1ccccc1 (single isomer, unassigned) : provide DC50
Outgoing: < 1 nM

Incoming: Please indicate DC50 recorded for COc1cc(N2CCC3(CC2)CC(CN2CCC4(CC2)COc2c4ccc4c2CN([C@H]2CCC(=O)NC2=O)C4=O)CO3)ccc1[C@H]1c2ccc(O)cc2CC[C@H]1c1ccccc1 (some centres unmarked)
Outgoing: < 1 nM

Incoming: // fetch DC50 given entry COc1cc(N2CCC3(CC2)C[C@H](CN2CCN4c5ccc6c(c5OC[C@H]4C2)CN([C@H]2CCC(=O)NC2=O)C6=O)CO3)c(F)cc1[C@@H]1c2ccc(O)cc2CC[C@@H]1c1ccccc1
Outgoing: < 1 nM

Incoming: For the compound O=C1CC[C@@H](Nc2ccc([C@@]34CCN(CC5CCC6(CC5)CN(c5ccc([C@@H]7c8ccc(O)cc8CC[C@@H]7c7ccccc7)cc5)C6)C[C@@H]3C4(F)F)cc2)C(=O)N1 , report DC50.
Outgoing: 1 to 10 nM

Incoming: Consider the compound COc1cc(N2CCC3(CC2)CC(CN2CCC4(CC2)COc2c4ccc4c2CN([C@H]2CCC(=O)NC2=O)C4=O)C3)ccc1[C@@H]1c2ccc(O)cc2CC[C@@H]1c1ccccc1 and give its recorded DC50.
Outgoing: < 1 nM
